Assay: Single dose intravenous PK study in male Sprague Dawley rats (plasma by LC-MS/MS)
Type: in vivo
Details: male, Sprague-Dawley, rat, plasma; PRX-P5-006 IV 2 mg/kg, mean; read-out: Tmax of PRX-P5-006
measured-property: Tmax (min)
The answer is to be given in min; state only the numeric part.

Exercise: What value of measured Tmax is listed for CCCCCCCCCCCCCCCCCC(=O)OC(C)OC(=O)N(CC)C1C2CCC(C2)C1c1ccccc1 (single isomer, unassigned) ?
Key: 4.8

* * *

Experiment: Single dose oral PK study in male Sprague Dawley rats (plasma by LC-MS/MS)
Format: in vivo
Details: male, Sprague Dawley, rat, in vivo, po, 5 mg/kg, PRX-002 (−) Isomer oral 5 mg/kg, mean; read-out: AUClast of PRX-002 (−) Isomer
measured-property: AUC(0-t)
Remember to put the unit after the number in your answer.

Exercise: What value of measured AUC(0-t) is listed for CCN[C@@H]1[C@@H]2CC[C@@H](C2)[C@H]1c1ccccc1 [PRX-002 (−) Isomer, reference compound] ?
Key: 371 ng·h/mL

* * *

Assay: Single dose oral PK study in male Sprague Dawley rats (plasma by LC-MS/MS)
Format: in vivo
Conditions: male, Sprague-Dawley, rat, in vivo; PRX-P5-011 oral (5 mg/kg equivalent), 6.00 h, individual animals; read-out: Plasma concentration of PRX-P5-011
measured-property: concentration at 6 h (ng/mL)
The answer is to be given in ng/mL; state only the numeric part.

Exercise: What value of measured concentration at 6 h is listed for CCCCCCCCCCCCCCCCCC(=O)OC(C)OC(=O)N(CC)C1C2CCC(C2)C1c1ccccc1 (single isomer, unassigned) [PRX-P5-011] ?
Key: 0

* * *

Assay: Single dose oral PK study in male Sprague Dawley rats (plasma by LC-MS/MS)
Type: in vivo
Settings: male, Sprague-Dawley, rat, in vivo; PRX-P5-011 oral (5 mg/kg equivalent), 0.00 h, individual animals; read-out: Plasma concentration of PRX-P5-011
measured-property: concentration at 0 h (ng/mL)
The answer is to be given in ng/mL; state only the numeric part.

Exercise: What value of measured concentration at 0 h is listed for CCCCCCCCCCCCCCCCCC(=O)OC(C)OC(=O)N(CC)C1C2CCC(C2)C1c1ccccc1 (single isomer, unassigned) ?
Key: 0

* * *

Assay: Single dose oral PK study in male Sprague Dawley rats (plasma by LC-MS/MS)
Assay type: in vivo
Conditions: male, Sprague Dawley, rat, in vivo, po, 5 mg/kg, single oral dose 5 mg/kg body weight, mean of N=3 (Table 39.24); read-out: Cmax
Method: We describe here PK results of prodrugs of PRX-002 (−) or (+) isomers. All doses of prodrugs were administered such that they were equivalent to 5 mg/kg of PRX-002 (−) or (+) for oral studies and 2 mg/kg PRX-002 (−) or (+) for intravenous studies in male Sprague-Dawley (MSD) rats. Higher doses of up to 10 or 15 mg/kg [again equivalent to PRX-002 (−)] were used in some studies (as specified)]. Formulation preparation, dose administration and time of sample collection was as follows. […]
measured-property: Cmax (ng/mL)
The answer is to be given in ng/mL; state only the numeric part.

Exercise: What value of measured Cmax is listed for CCN[C@H]1[C@H]2CC[C@H](C2)[C@@H]1c1ccccc1 [PRX-002 (+) Isomer, reference compound] ?
Key: 107

* * *

Assay: Single dose oral PK study in male Sprague Dawley rats (plasma by LC-MS/MS)
Format: in vivo
Conditions: male, Sprague-Dawley, rat, in vivo, po, 5 mg/kg, PRX-P5-006 oral 5 mg/kg b.w., individual animals; read-out: AUCinf of PRX-P5-006
measured-property: AUC(0-inf) (ng·h/mL)
The answer is to be given in ng·h/mL; state only the numeric part.

Exercise: What value of measured AUC(0-inf) is listed for CCCCCCCCCCCCCCCCCC(=O)OC(C)OC(=O)N(CC)C1C2CCC(C2)C1c1ccccc1 (single isomer, unassigned) ?
Key: 123

* * *

Assay: Single dose intravenous PK study in male Sprague Dawley rats (plasma by LC-MS/MS)
Assay type: in vivo
Conditions: male, Sprague Dawley, rat, plasma, iv, 2 mg/kg, single IV dose 2 mg/kg b.w., mean plasma PK parameters (Table 39.27); read-out: Vss
measured-property: Vd

Exercise: What value of measured Vd is listed for CCN[C@H]1[C@H]2CC[C@H](C2)[C@@H]1c1ccccc1 [PRX-002 (+) Isomer, reference compound] ?
Key: 10.1 L/kg

* * *

Test: Single dose intravenous PK study in male Sprague Dawley rats (plasma by LC-MS/MS)
Type: in vivo
Details: male, Sprague Dawley, rat, plasma, iv, 15 mg/kg, IV 15 mg/kg (footnote *), analyte: prodrug in plasma, mean; read-out: IV PK Parameters Cmax, Prodrug
measured-property: Cmax (ng/mL)
The answer is to be given in ng/mL; state only the numeric part.

Exercise: What value of measured Cmax is listed for CCCCCCCCCCCCCCCCCC(=O)OC(C)OC(=O)N(CC)C1C2CCC(C2)C1c1ccccc1 (single isomer, unassigned) ?
Key: 16400

* * *

Experiment: Single dose oral PK study in male Sprague Dawley rats (plasma by LC-MS/MS)
Type: in vivo
Details: male, Sprague Dawley, rat, in vivo, po, 5 mg/kg, PRX-002 (−) Isomer oral 5 mg/kg, mean; read-out: MRTlast of PRX-002 (−) Isomer
measured-property: MRT last (h)
The answer is to be given in h; state only the numeric part.

Exercise: What value of measured MRT last is listed for CCN[C@@H]1[C@@H]2CC[C@@H](C2)[C@H]1c1ccccc1 [PRX-002 (−) Isomer, reference compound] ?
Key: 1.47

* * *

Experiment: Single dose intravenous PK study in male Sprague Dawley rats (plasma by LC-MS/MS)
Assay type: in vivo
Conditions: male, Sprague-Dawley, rat, plasma, iv, 2 mg/kg, PRX-P5-011 IV 2 mg/kg b.w., 4.00 h, mean
measured-property: concentration at 4 h (ng/mL)
The answer is to be given in ng/mL; state only the numeric part.

Exercise: What value of measured concentration at 4 h is listed for CCCCCCCCCCCCCCCCCC(=O)OC(C)OC(=O)N(CC)C1C2CCC(C2)C1c1ccccc1 (single isomer, unassigned) [PRX-P5-011] ?
Key: 0

* * *

Assay: Single dose intravenous PK study in male Sprague Dawley rats (plasma by LC-MS/MS)
Assay type: in vivo
Details: male, Sprague-Dawley, rat, plasma, iv, 2 mg/kg, PRX-P4-003 IV 2 mg/kg, mean; read-out: T1/2 of PRX-P4-003 (converted)
measured-property: half-life

Exercise: What value of measured half-life is listed for CCCCCCCCCCCCCCCCCC(=O)OCOC(=O)N(CC)C1C2CCC(C2)C1c1ccccc1 (single isomer, unassigned) [PRX-P4-003] ?
Key: 3.35 h

* * *

Give AUC for every item shown.
Test: Single dose oral PK study in male Sprague Dawley rats (plasma by LC-MS/MS)
Format: in vivo
Settings: male, Sprague Dawley, rat, in vivo; oral 5 mg/kg [equivalent to PRX-002 (−)], analyte: prodrug in plasma, mean; read-out: Oral PK Parameters AUC, Prodrug

Exercise: What value of measured AUC is listed for CCN(C(=O)[C@@H](N)CCCCN)C1C2CCC(C2)C1c1ccccc1 (stereo partly drawn) [PRX-P1-005] ?
Key: 42 ng·h/mL

Exercise: What value of measured AUC is listed for CCN(C(=O)[C@@H](N)Cc1ccccc1)C1C2CCC(C2)C1c1ccccc1 (stereo partly drawn) [PRX-P1-013] ?
Key: 678 ng·h/mL

Exercise: What value of measured AUC is listed for CCN(C(=O)[C@@H](NC(=O)[C@@H](N)C(C)C)C(C)C)C1C2CCC(C2)C1c1ccccc1 (single isomer, unassigned) ?
Key: 44.2 ng·h/mL

* * *

Test: Single dose oral PK study in male Sprague Dawley rats (plasma by LC-MS/MS)
Assay type: in vivo
Details: male, Sprague-Dawley, rat, in vivo, po, 5 mg/kg, PRX-002 (+) Isomer oral 5 mg/kg, mean; read-out: AUCinf of PRX-002(+) Isomer
measured-property: AUC(0-inf) (µg·h/mL)
The answer is to be given in µg·h/mL; state only the numeric part.

Exercise: What value of measured AUC(0-inf) is listed for CCN[C@H]1[C@H]2CC[C@H](C2)[C@@H]1c1ccccc1 [PRX-002 (+) Isomer, reference compound] ?
Key: 0.151

* * *

Test: Single dose intravenous PK study in male Sprague Dawley rats (plasma by LC-MS/MS)
Format: in vivo
Conditions: male, Sprague Dawley, rat, plasma, iv, 2 mg/kg, PRX-P5-006 IV 2 mg/kg, mean; read-out: CL of PRX-P5-006
measured-property: clearance (mL/min/kg)
The answer is to be given in mL/min/kg; state only the numeric part.

Exercise: What value of measured clearance is listed for CCCCCCCCCCCCCCCCCC(=O)OC(C)OC(=O)N(CC)C1C2CCC(C2)C1c1ccccc1 (single isomer, unassigned) ?
Key: 7.48

Just for reference, patent US10662146B2 is where these values come from.
